Target: UniProt P55212
Sequence (P55212 whole entry): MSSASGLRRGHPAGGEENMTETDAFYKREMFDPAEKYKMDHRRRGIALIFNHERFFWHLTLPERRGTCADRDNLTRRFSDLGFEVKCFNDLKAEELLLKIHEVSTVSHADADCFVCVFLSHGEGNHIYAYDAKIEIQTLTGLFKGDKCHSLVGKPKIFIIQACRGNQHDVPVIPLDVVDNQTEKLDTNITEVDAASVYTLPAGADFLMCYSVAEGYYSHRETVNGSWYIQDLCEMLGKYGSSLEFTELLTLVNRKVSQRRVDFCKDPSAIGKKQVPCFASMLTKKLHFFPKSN
Assay: human caspase-6 inhibitors, dose response, biochemical, VEID-R110 fluorescence, cherry-pick (AID 720632)
Calls of active or inactive are those of the source.
propertyLabel: AC50

Oc1ccc(/N=C/c2c(O)ccc3ccccc23)cc1 : 10 µM (active)
O=[N+]([O-])c1cc(/C=N/Nc2nc3ccccc3[nH]2)c(O)cc1O : 5.37 µM (active)
O=C(COC(=O)c1ccc([N+](=O)[O-])o1)Nc1ccc(Br)cc1F : 40.1 µM (active)
O=C(O)c1ccccc1NS(=O)(=O)c1ccc(NN=Cc2ccccc2F)c([N+](=O)[O-])c1 : 19 µM (active)

Q: Returns the measured AC50 for the input compound. Input: `COc1cc(/C=C2\CCc3c2nc2ccccc2c3C(=O)O)cc(OC)c1OC`
A: 6.8 µM (active)

----------
molecular target: Luciferin 4-monooxygenase (Photinus pyralis, UniProt P08659); assay: firefly luciferase enzyme inhibitors, dose response, biochemical, luminescence (AID 1891)
Sequence (P08659 whole entry): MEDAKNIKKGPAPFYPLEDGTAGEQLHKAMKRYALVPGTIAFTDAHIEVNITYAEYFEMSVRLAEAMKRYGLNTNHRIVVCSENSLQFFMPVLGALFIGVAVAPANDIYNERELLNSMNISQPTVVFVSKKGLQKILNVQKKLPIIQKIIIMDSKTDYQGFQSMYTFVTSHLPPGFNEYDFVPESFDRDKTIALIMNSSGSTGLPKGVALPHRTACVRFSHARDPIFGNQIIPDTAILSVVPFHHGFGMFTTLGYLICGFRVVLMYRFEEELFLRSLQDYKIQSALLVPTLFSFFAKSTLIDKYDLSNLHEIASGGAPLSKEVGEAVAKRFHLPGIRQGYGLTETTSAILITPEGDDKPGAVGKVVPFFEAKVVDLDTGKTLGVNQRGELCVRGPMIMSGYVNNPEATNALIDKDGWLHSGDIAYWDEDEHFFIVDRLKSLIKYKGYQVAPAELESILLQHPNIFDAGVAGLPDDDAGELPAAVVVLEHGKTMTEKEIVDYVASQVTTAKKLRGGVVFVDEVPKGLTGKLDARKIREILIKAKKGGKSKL
propertyLabel: EC50

Cc1nc2sc(C(c3ccccc3)N3CCN(c4ccccc4F)CC3)c(O)n2n1 (stereo not drawn) : > 112 µM (not active)
COc1cccc(CNC(=O)c2cc(S(=O)(=O)N3CCCC3)cn2C)c1 : > 112 µM (not active)

Q: Checklist item: EC50 tested on Luciferin 4-monooxygenase (Photinus pyralis, UniProt P08659), entry `CN1CCN(S(=O)(=O)c2cccc([N+](=O)[O-])c2)CC1` , value?
A: > 112 µM (not active)

----------
experiment: NIH:OVCAR-3 ovarian cancer cell cytotoxicity, dose response, PAX8 inhibitor project, plate reader, dry powder samples (AID 743044); format: functional, cell-based
Activity calls are given as the source filed them.
Parameter: AC50. Scope: all listed entries.

Solved entries (count: 3):
C[C@@H]1CCCCO[C@H](CN(C)Cc2ccncc2)[C@H](C)CN([C@H](C)CO)C(=O)c2cc(NC(=O)Nc3ccc(C(F)(F)F)cc3)ccc2O1 : 35.4 µM (active)
C[C@@H]1CN([C@@H](C)CO)S(=O)(=O)c2ccc(C#Cc3ccccc3F)cc2O[C@@H]1CN(C)C(=O)c1ccc2c(c1)OCO2 : 20.5 µM (active)
O=C(Cc1cccnc1)N1CCCCN2[C@H](C1)[C@H](c1ccc(/C=C/c3ccccc3)cc1)[C@@H]2CO : 5.01 µM (active)

Q: Returns the measured AC50 for the input compound. Input: `C[C@@H]1CCCCO[C@H](CN(C)Cc2ccc(C(F)(F)F)cc2)[C@H](C)CN([C@@H](C)CO)C(=O)c2cc(NC(=O)Nc3ccc4c(c3)OCO4)ccc2O1`
A: 48.7 µM (active)

----------
target: RNA-binding protein pos-1 (Caenorhabditis elegans); assay: inhibitors of POS-1/mex-3 RNA binding, dose response, biochemical, fluorescence polarization (AID 1964);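 further: purified POS-1 fused to maltose binding protein made in E. coli; potency of compounds blocking POS-1 binding to fluorescent RNA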
Sequence (G5EF15 whole entry, the tested form may be a part): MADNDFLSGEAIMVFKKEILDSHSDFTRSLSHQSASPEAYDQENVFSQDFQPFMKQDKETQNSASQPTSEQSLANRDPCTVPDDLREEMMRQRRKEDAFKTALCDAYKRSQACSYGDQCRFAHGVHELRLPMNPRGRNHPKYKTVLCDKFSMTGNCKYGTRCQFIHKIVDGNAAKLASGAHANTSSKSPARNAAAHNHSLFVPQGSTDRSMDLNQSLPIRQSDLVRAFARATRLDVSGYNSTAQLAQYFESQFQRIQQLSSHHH
Activity calls are given as the source filed them.
Parameter: EC50. Scope: all listed entries.

Solved entries (count: 4):
CN1C(=O)C(=Cc2sc(=O)n(-c3ccccc3)c2N2CCCCC2)C(=O)N(C)C1=O : 4.56 µM (inconclusive)
Cc1ccc(/N=C/c2sc(O)c3ccccc23)c(C)c1 : > 300 µM (not active)
COCCCn1c(N)c(-c2nc3ccccc3n2C)c2nc3ccccc3nc21 : 40.4 µM (active)
COc1ccc(OC)c(C2C(C(=O)c3ccco3)=C(O)C(=O)N2CCN2CCOCC2)c1 (stereo not given) : > 300 µM (not active)

Q: Returns the measured EC50 for the input compound. Input: `CC(=O)Oc1oc(-c2ccccc2)nc1/C=N/c1ccc(N(C)C)cc1`
A: > 300 µM (not active)

Q: Returns the measured EC50 for the input compound. Input: `Br.N=c1n(CC(=O)c2ccc([N+](=O)[O-])cc2)c2ccccc2n1Cc1ccc(Cl)cc1`
A: 125 µM (active)

Q: Returns the measured EC50 for the input compound. Input: `COC(=O)[C@H](CCSC)NC(=O)NC1CCN(Cc2ccccc2)CC1`
A: > 300 µM (not active)
